Molecular target: human CD47 on cells (SHP-77 tumor cells, human red blood cells, CCRF-CEM cells, human CD47 CHO-K1 stable cell … (human, UniProt Q08722 19-323))
Assay: cell-based or functional assay
Measurement kind: CCRF-CEM phagocytosis EC50 (nM)
The reply should contain only the number, in nM.

Incoming: Please give the documented CCRF-CEM phagocytosis EC50 of 108VH10.Mo / 108VL10.Me (antibody, V domains shown, 4D5-framework series; also called VH10.Mo VL10.Me) VH: EVQLVESGGGLVQPGGSLRLSCAASGFTFSHHWIHWVRQAPGKGLEWVAMIDASDSETRLSDSFKGRFTISADTSKNTAYLQMNSLRAEDTAVYYCSRLGRYYFDYWGQGTLVTVSS VL: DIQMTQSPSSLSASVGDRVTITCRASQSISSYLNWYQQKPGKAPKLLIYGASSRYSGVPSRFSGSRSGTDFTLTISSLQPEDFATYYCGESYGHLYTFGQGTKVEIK
Outgoing: 0.18

Source: patent US20260132197A1
